# inhibition annotations
target: G-protein coupled receptor 183 (Homo sapiens) (UniProt P32249); test: repeat testing of EBI2 arrestin blockers – cell-based, single concentration, luminescence, 7a,25-OHC stimulation, confirmation (AID 651997); details: EBI2 beta-arrestin luminescence, 7a,25-OHC antagonism; at 5 µM; active compounds read high
Sequence (P32249 whole entry, looked up): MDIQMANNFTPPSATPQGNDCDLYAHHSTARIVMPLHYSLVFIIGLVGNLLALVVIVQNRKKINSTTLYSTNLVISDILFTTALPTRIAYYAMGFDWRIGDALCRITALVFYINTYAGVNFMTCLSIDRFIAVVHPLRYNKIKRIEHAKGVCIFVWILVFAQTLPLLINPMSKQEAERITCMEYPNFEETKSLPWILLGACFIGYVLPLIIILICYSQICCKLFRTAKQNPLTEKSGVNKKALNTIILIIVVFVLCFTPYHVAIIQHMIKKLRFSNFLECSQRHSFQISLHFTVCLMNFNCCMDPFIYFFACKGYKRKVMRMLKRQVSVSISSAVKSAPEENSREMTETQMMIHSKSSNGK
The campaign covered roughly 2,400 compounds. About 700 (29%) were called active. These entries were drawn from the full list.
readout.name: inhibition (%)

{"columns": ["molecule", "output.unit", "reported"],
 "data": [
  ["Cc1cccc(N2CCN(C(=O)c3cc4c(=O)[nH]c5ccccc5c4n3C)CC2)c1C", "%", 75.1],
  ["Cc1ccc(N2CC(C(=O)Nc3ccc(S(=O)(=O)N4CCCC4)cc3)CC2=O)cc1C (stereo not given)", "%", 34.7],
  ["O=C(NNC(=O)c1ccc2ccccc2c1)c1ccc(Cl)cc1", "%", 26.7],
  ["O=C(c1cc2ccccc2o1)N1CCN(S(=O)(=O)c2ccc(Cl)s2)CC1", "%", 70.7],
  ["Cc1ccc(OCC(=O)N2CCN(S(=O)(=O)c3ccc(Cl)s3)CC2)cc1C", "%", 79],
  ["N#Cc1ccc(C2=CC(=O)C[C@H](c3ccc(Cl)cc3)C2)cc1", "%", 53.7],
  ["CC1CCc2sc3nc(N4CCN(CCO)CC4)n4ncnc4c3c2C1 (stereo not given)", "%", 67.9],
  ["Cc1ccc(OCC(=O)N2CCN(C(=O)c3cccnc3)CC2)cc1", "%", 17.6],
  ["O=C(COc1ccc(Cl)cc1)N1CCN(S(=O)(=O)c2ccc(Cl)cc2)CC1", "%", 72.8],
  ["COc1ccc2cc(C3=CC(=O)C[C@H](c4ccc5c(c4)OCO5)C3)ccc2c1", "%", 51.4]
]}
